MEASURED_TARGET: Rap guanine nucleotide exchange factor 3 (Homo sapiens)
PROTOCOL_SUMMARY: Confirmatory qHTS for antagonist of cAMP-regulated guanine nucleotide exchange factor 3 (EPAC1) (AID 1645880); also: nearly all actives have a fitted effect of over 55% in size
TEST_CONTEXT: EPAC1 Rap1B-BODIPY-GDP exchange, fluorescence
Records with an inconclusive call do not appear. The source made the active and inactive calls. Calls follow the shape of the dose curve; as a rule, active = well fitted inhibition curve with a large enough effect; inconclusive = small, poorly fitted or top-dose-only effect; inactive = no such curve, though single readings can be large or run the other way.
Your answer must be one of the following: True = active, False = inactive

What did the test return for Cc1ccc2c(c1)NC(=O)C(CC(=O)N(C)Cc1ccccc1)O2 (centres undefined) ? False

Next entry: CCc1ccc([C@@H]2CC=C(C(=O)O)[C@H](c3ccc(C(C)(C)C)cc3)N2S(=O)(=O)c2ccc(C)cc2)cc1 True

Param item: COc1ccc(OC)c(C(C[N+](=O)[O-])c2c(C)cc3ccccn23)c1 (centres undefined) False

Record: COCCN(CCOC)Cc1cc(=O)oc2cc(C)cc(C)c12 False

Repeat with CCCC(=O)NCCCc1nc2ccccc2n1C False

// next entry
I'd appreciate the recorded outcome for N#Cc1cc(Br)ccc1N=C1CCCN1c1ccccc1 from this test. False
